- test: Pharmacokinetics in Cynomolgus monkeys, single subcutaneous or intravenous dose
- Assay type: in vivo
- conditionSummary: both sexes, cynomolgus monkey, plasma, iv, 183 nmol/kg, single intravenous dose 183 nmol/kg, individual animal
*1 amine or outer side, *2 acyl side, *3 side chain or, on linkers, in order; H or OH if unused. Side-chain parts run from the residue outwards. [ ]: non-standard residue; d: D form. The star is where a group is joined. C20 diacid = O=C(O)CCCCCCCCCCCCCCCCCCC(=O)*; γGlu = O=C(O)[C@H](CCC(=O)[*:2])N[*:1]; εLys = N[C@@H](CCCCN[*:1])C(=O)[*:2]; pGlu = O=C1CC[C@@H](C(=O)O)N1; αMeL = CC(C)C[C@](C)(N)C(=O)O; AEEA = NCCOCCOCC(=O)O; Aib = CC(C)(N)C(=O)O

| substance | half-life (days) |
| --- | --- |
| [pGlu]GSPSGIVTS[αMeL]DVPT[Aib][αMeL]LQKILEQERAEKARQQAK([γGlu-AEEA-εLys-C20 diacid])EAAEILAQV-NH2 [SEQ ID NO: 22] | 3.46 |
